# target-desc: HIV Env of isolate ZM109F.PB4 (clade C) (HIV)
# experiment: cell-based or functional assay
measured-metric: IC50 (µg/ml) with constrains (µg/mL)
Numbers only, in µg/mL.

binder | IC50 (µg/ml) with constrains / µg/mL
ePGDM5 (antibody, V domains shown) VH: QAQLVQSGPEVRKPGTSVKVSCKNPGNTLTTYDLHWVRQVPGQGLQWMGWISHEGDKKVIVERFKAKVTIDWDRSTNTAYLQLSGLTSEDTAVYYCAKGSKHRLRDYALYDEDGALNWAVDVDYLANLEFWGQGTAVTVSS VL: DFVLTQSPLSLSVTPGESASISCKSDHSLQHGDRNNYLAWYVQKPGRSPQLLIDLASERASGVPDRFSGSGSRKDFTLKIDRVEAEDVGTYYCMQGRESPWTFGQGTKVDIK | 0.03

Batch request: IC50 (µg/ml) with constrains for each of the following binders.
1. PGDM1400 (antibody, V domains shown) VH: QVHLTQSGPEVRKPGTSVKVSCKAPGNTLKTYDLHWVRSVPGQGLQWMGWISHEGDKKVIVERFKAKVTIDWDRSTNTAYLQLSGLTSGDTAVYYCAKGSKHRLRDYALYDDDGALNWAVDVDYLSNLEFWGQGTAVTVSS VL: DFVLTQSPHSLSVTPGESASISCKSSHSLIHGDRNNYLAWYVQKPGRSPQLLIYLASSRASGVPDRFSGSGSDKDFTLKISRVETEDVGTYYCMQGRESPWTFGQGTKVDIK
2. ePGDM9 (antibody, V domains shown) VH: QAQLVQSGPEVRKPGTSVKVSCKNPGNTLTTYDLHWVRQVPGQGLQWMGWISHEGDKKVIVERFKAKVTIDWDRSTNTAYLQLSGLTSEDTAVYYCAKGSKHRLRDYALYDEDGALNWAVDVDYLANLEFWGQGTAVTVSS VL: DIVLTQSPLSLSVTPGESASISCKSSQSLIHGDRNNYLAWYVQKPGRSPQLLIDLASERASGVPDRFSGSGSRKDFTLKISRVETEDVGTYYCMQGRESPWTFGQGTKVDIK
3. ePGDM13 (antibody, V domains shown) VH: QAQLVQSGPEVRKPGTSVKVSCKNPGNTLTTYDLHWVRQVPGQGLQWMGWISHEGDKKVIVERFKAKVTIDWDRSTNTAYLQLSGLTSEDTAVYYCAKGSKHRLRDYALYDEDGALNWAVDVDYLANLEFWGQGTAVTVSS VL: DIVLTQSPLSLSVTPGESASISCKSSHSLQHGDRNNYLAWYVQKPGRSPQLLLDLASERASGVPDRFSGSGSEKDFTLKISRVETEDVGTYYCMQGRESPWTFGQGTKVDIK

Result string:
1. 0.098
2. 0.027
3. 0.049

Where do the numbers come from? From patent US20230134571A1.
